# credit: ChEMBL document CHEMBL1157447

- Test system: Rattus norvegicus
- measurementDescription: Antidiabetic activity in po dosed Streptozotocin induced diabetic Sprague-Dawley rat assessed as decrease in serum glucose level after 60 mins
- Type: functional
- Parameters: concentration or dose not given beside the values
Form field: Activity (one value per entry).

Reference set (3 entries):
[
  {
    "recordSmiles": "Cc1ccc(Nc2nc(N)nc(COc3cccc4cccnc34)n2)cc1",
    "Activity": "20%"
  },
  {
    "recordSmiles": "COc1ccc(N2C(=O)NC(=O)/C(=C\\c3cccn3CCOc3cccc(C)c3)C2=O)cc1Cl",
    "Activity": "5%"
  },
  {
    "recordSmiles": "N#C/C(=C\\Nc1cccc(F)c1)c1nc(-c2cc3ccccc3oc2=O)cs1",
    "Activity": "20%"
  }
]

Consider the additional compound presented here.
input: Specify measured Activity for "CCc1ccc(N2C(=O)NC(=O)/C(=C\c3cccn3CCOc3cccc(C)c3)C2=O)cc1" .
output: 20%

###

Some molecules, each annotated with its measured inhibition.
- System: Saccharomyces cerevisiae
- measurementDescription: Inhibition of alpha glucosidase from baker's yeast at 50 uM
// note: answer is a bare numeric in %

[
  {
    "molecule": "CCc1ccc(N2C(=O)NC(=O)/C(=C\\c3cccn3CCOc3cccc(C)c3)C2=O)cc1",
    "testSystem": "Saccharomyces cerevisiae",
    "experimentalReadout": "inhibition",
    "quantitativeReadout": 86
  },
  {
    "molecule": "C[C@H]1O[C@H](O[C@H]2[C@H](O)[C@@H](O)[C@@H](OC3[C@@H](CO)OC(O)[C@H](O)[C@H]3O)O[C@@H]2CO)[C@H](O)[C@@H](O)[C@@H]1N[C@H]1C=C(CO)[C@@H](O)[C@H](O)[C@H]1O (single isomer, unassigned)",
    "testSystem": "Saccharomyces cerevisiae",
    "experimentalReadout": "inhibition",
    "quantitativeReadout": 88.1
  },
  {
    "molecule": "COc1ccc(N2C(=O)NC(=O)/C(=C\\c3cccn3CCOc3cccc(C)c3)C2=O)cc1Cl",
    "testSystem": "Saccharomyces cerevisiae",
    "experimentalReadout": "inhibition",
    "quantitativeReadout": 88.7
  },
  {
    "molecule": "Cc1ccc(Nc2nc(N)nc(COc3cccc4cccnc34)n2)cc1",
    "testSystem": "Saccharomyces cerevisiae",
    "experimentalReadout": "inhibition",
    "quantitativeReadout": 78.9
  }
]

Below: the item to evaluate.
input: Specify inhibition for "N#C/C(=C\Nc1cccc(F)c1)c1nc(-c2cc3ccccc3oc2=O)cs1" and stop.
output: 75.2
